In this section, each of the molecules is paired with its reported Hepatotoxicity (association with vascular disease).
# assayConditions: human
*1 amine or outer side, *2 acyl side, *3 side chain or, on linkers, in order; H or OH if unused. Where a SMILES comes first, the peptide text is derived from it. Bridges are numbered along the chain shown (N, C = ends). Roman numbers before positions name the chains, in order. [ ]: non-standard residue; d: D form. Actinocin(9to1) = Cc1c2oc3c(C)ccc(C(=O)[*:1])c3nc-2c(C(=O)[*:2])c(N)c1=O; NMeV = CN[C@H](C(=O)O)C(C)C; Sar = CNCC(=O)O
readoutName: Hepatotoxicity (association with vascular disease)

molecule	readoutNumber
NC(=O)N1c2ccccc2C=Cc2ccccc21 [CARBAMAZEPINE]	0
Cc1c2oc3c(C)ccc(C(=O)N[C@@H]4C(=O)N[C@H](C(C)C)C(=O)N5CCC[C@H]5C(=O)N(C)CC(=O)N(C)[C@@H](C(C)C)C(=O)O[C@@H]4C)c3nc-2c(C(=O)N[C@@H]2C(=O)N[C@H](C(C)C)C(=O)N3CCC[C@H]3C(=O)N(C)CC(=O)N(C)[C@@H](C(C)C)C(=O)O[C@@H]2C)c(N)c1=O [DACTINOMYCIN] (I: T[dV]P[Sar][NMeV] / II: T[dV]P[Sar][NMeV]; ester I:1-I:C, II:1-II:C; linker I:N-II:N via Actinocin(9to1))	16
CO/N=C(\C(=O)N[C@@H]1C(=O)N2C(C(=O)[O-])=C(C[N+]34CCC(C(N)=O)(CC3)CC4)CS[C@H]12)c1nsc(N)n1	0
COc1ccc2c(C(=S)N(C)CC(=O)O)cccc2c1C(F)(F)F	0
CC(C(=O)Nc1cc(-c2ccccc2)nn1-c1ccccc1)N(C)C (stereo not given)	0

----------
# assayConditions: human
In this section, each of the compounds is paired with its reported Hepatotoxicity (choleostasis).
readoutName: Hepatotoxicity (choleostasis)

compound	result
CC(C)c1nc(CN(C)C(=O)N[C@H](C(=O)N[C@@H](Cc2ccccc2)C[C@H](O)[C@H](Cc2ccccc2)NC(=O)OCc2cncs2)C(C)C)cs1 [RITONAVIR]	2
Cc1cnc(C(=O)NCCc2ccc(S(=O)(=O)NC(=O)NC3CCCCC3)cc2)cn1 [GLIPIZIDE]	0
CN(C)CCN(Cc1ccccc1)c1ccccn1 [TRIPELENNAMINE]	1
CCN(CC)C(=O)C1(c2ccccc2)CC1CN (stereo not given)	0
NC(=O)NO [HYDROXYUREA]	1

----------
# assayConditions: human
In this section, each of the compounds is paired with its reported Hepatotoxicity (steatosis).
readoutName: Hepatotoxicity (steatosis)

compound	readoutName	result
COc1ccc2nc(NC(=O)Nc3ccccc3)sc2c1 [FRENTIZOLE]	Hepatotoxicity (steatosis)	0
CC[C@H](c1ccc(O)cc1)[C@@H](CC)c1ccc(O)cc1 [HEXESTROL]	Hepatotoxicity (steatosis)	1
CN1c2ccccc2C(NCCCCCCC(=O)O)c2ccc(Cl)cc2S1(=O)=O (configuration not stated) [TIANEPTINE]	Hepatotoxicity (steatosis)	1
CC(C)C[C@H](NC(=O)[C@@H](O)[C@H](N)Cc1ccccc1)C(=O)O [UBENIMEX]	Hepatotoxicity (steatosis)	0
N[C@@H]1[C@H]2CN(c3nc4c(cc3F)c(=O)c(C(=O)O)cn4-c3ccc(F)cc3F)C[C@@H]12 [TROVAFLOXACIN]	Hepatotoxicity (steatosis)	0
CCC1(c2ccc(N)cc2)CCC(=O)NC1=O (configuration not stated) [AMINOGLUTETHIMIDE]	Hepatotoxicity (steatosis)	0
O=C1CCC(N2C(=O)c3ccccc3C2=O)C(=O)N1 (configuration not stated) [THALIDOMIDE]	Hepatotoxicity (steatosis)	0
CC[C@H](C)C(=O)O[C@H]1C[C@H](O)C=C2C=C[C@H](C)[C@H](CC[C@@H](O)C[C@@H](O)CC(=O)O)[C@H]21 [PRAVASTATIN]	Hepatotoxicity (steatosis)	1
CCC(C)n1ncn(-c2ccc(N3CCN(c4ccc(OCC5COC(Cn6cncn6)(c6ccc(Cl)cc6Cl)O5)cc4)CC3)cc2)c1=O (configuration not stated) [ITRACONAZOLE]	Hepatotoxicity (steatosis)	1
CC(C)[N+](C)(CCC(C(N)=O)(c1ccccc1)c1ccccc1)C(C)C [ISOPROPAMIDE]	Hepatotoxicity (steatosis)	0
CC=CC1=C(C(=O)O)N2C(=O)[C@@H](NC(=O)[C@H](N)c3ccc(O)cc3)[C@H]2SC1 [CEFPROZIL]	Hepatotoxicity (steatosis)	0
CCCNC(=O)NS(=O)(=O)c1ccc(Cl)cc1 [CHLORPROPAMIDE]	Hepatotoxicity (steatosis)	0
CC(C)(C)C(=O)OCOC(=O)[C@@H]1N2C(=O)[C@@H](NC(=O)[C@H](N)c3ccccc3)[C@H]2SC1(C)C [PIVAMPICILLIN]	Hepatotoxicity (steatosis)	0
O=C(O)COc1ccc(C(=O)c2cccs2)c(Cl)c1Cl	Hepatotoxicity (steatosis)	1
CCN1CCC[C@H]1CNC(=O)c1c(O)c(Cl)cc(Cl)c1OC [RACLOPRIDE]	Hepatotoxicity (steatosis)	0
CO[C@@]1(NC(=O)C(C(=O)[O-])c2ccc(O)cc2)C(=O)N2C(C(=O)[O-])=C(CSc3nnnn3C)CO[C@@H]21.[Na+].[Na+] (some centres not stated) [MOXALACTAM DISODIUM]	Hepatotoxicity (steatosis)	0
[H]/N=C(\N/C(=N/[H])Nc1ccc(Cl)cc1)NC(C)C [PROGUANIL]	Hepatotoxicity (steatosis)	0
